- study-target: T1, TcpB (minor pilin, N-terminally truncated, first 28 residues excluded) (Vibrio cholerae O1 classical strain 569 …)
- T1 chain: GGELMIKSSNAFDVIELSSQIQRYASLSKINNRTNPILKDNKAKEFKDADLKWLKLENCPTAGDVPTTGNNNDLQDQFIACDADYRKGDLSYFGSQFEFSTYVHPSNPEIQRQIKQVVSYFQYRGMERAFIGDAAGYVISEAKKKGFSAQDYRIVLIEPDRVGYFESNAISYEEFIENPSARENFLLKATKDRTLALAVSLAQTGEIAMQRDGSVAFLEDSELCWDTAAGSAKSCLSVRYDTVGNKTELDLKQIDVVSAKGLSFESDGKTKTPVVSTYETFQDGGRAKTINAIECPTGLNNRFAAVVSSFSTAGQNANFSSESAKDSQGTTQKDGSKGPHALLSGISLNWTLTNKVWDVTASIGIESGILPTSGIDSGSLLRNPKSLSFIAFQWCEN
- test-description: ITC
metric-name: pKd
Just so you know, pKd here is -log10 of the concentration in molar units; reply with that number alone.

pKd for FNDNYSSTSTVYATS [TcpF (1–15) peptide] ? 5.52
